target: human recombinant COX2 (hCOX2) (UniProt P35354); assay: LCMS-based COX2 enzymatic inhibition assay (PGE2 quantification); format: biochemical; design: COX2 2 minutes pge2/pge2d4 area ratio Avg; other: 2 minutes; readout pge2/pge2d4 area ratio; average; COX2 2 minutes pge2/pge2d4 area ratio Avg; LLE; average LLE; COX2 2 minutes pge2 area (counts) Avg; readout pge2 area (counts); other: 2 min; "ovine COX2 (oCOX2), human recombinant COX2 (hCOX2)"; conditions: 2 minutes; readout pge2/pge2d4 area ratio; average; read-out: COX2 2 minutes pge2/pge2d4 area ratio Avg. IC50
Parameter: IC50. Scope: all listed entries.
Your answer should be a plain number; it is taken to be in nM.

Please review the following examples before continuing.
C[C@H](Nc1cncc(-c2ccc(S(C)(=O)=O)cc2)n1)c1cccs1    98.2
Cc1ccc(CNc2cccc(-c3ccc(S(C)(=O)=O)cc3)n2)o1    110
CS(=O)(=O)c1ccc(-c2cncc(NCc3ccco3)n2)cc1    118
CS(=O)(=O)c1ccc(-c2cnc3ccn(Cc4cccs4)c3c2)cc1    99.1
COc1ncc(NCc2nccs2)nc1-c1ccc(S(C)(=O)=O)cc1    93.3

Query: Consider the compound NS(=O)(=O)c1ccc(-c2cncc(NCc3cccs3)n2)cc1 and give its measured IC50.
Response: 91.6

Query: Entry Cc1ncc(OCc2cccs2)nc1-c1ccc(S(C)(=O)=O)cc1 please
Response: 116

Query: Entry COc1ncc(-c2ccc(S(C)(=O)=O)cc2)nc1NCc1cccs1 please
Response: 108

Query: Entry CS(=O)(=O)c1ccc(-c2cccc(OCc3ccc(F)cc3)n2)cc1 please
Response: 71.1

Query: Entry CS(=O)(=O)c1ccc(-c2cncc(NCc3ccsc3)n2)cc1 please
Response: 91.1

Query: Entry CS(=O)(=O)c1ccc(-c2cccc(NCc3nccs3)n2)cc1 please
Response: 91.5

###

assay: rat plasma protein binding (PPB) assay; type: in vitro ADME; details: average, read-out: Rat Plasma Protein Binding % Bound Avg (converted)
Parameter: fraction unbound. Scope: all listed entries.
Form rule: numeric answer, no unit written next to it.

Please review the following examples before continuing.
CS(=O)(=O)c1ccc(-c2cccc(NCc3ccc(F)cc3)n2)cc1 [Compound 13]    0.021
CS(=O)(=O)c1ccc(-c2nc(NCc3cccs3)cc3ccoc23)cc1 [Compound 2]    0.009
CS(=O)(=O)c1ccc(-c2cccc(/C=C\c3cccs3)n2)cc1 [Compound 41]    0.021
CS(=O)(=O)c1ccc(-c2cncc(OCc3cccs3)n2)cc1 [Compound 19]    0.015
Cc1occc1CNc1cccc(-c2ccc(S(C)(=O)=O)cc2)n1 [Compound 21]    0.042

Query: Consider the compound COc1ncc(NCc2ccoc2)nc1-c1ccc(S(C)(=O)=O)cc1 [Compound 44] and give its measured fraction unbound.
Response: 0.044

Query: Entry CS(=O)(=O)c1ccc(-c2cccc(NCc3cccs3)n2)cc1 [Compound 24] please
Response: 0.025

Query: Entry CS(=O)(=O)c1ccc(-c2cccc(OCc3ccoc3)n2)cc1 [Compound 16] please
Response: 0.031

Query: Entry CS(=O)(=O)c1ccc(-c2cncc(SCc3ccoc3)n2)cc1 [Compound 12] please
Response: 0.006

Query: Entry CS(=O)(=O)c1ccc(-c2cc(F)cc(NCc3ccoc3)n2)cc1 [Compound 34] please
Response: 0.025

Query: Entry CS(=O)(=O)c1ccc(-c2nc(OCc3cccs3)cc3ccoc23)cc1 [Compound 5] please
Response: 0.001

Query: Entry COc1ncc(NCc2ccco2)nc1-c1ccc(S(C)(=O)=O)cc1 [Compound 43] please
Response: 0.028

Query: Entry CS(=O)(=O)c1ccc(-c2cc(F)cc(NCc3ccco3)n2)cc1 [Compound 14] please
Response: 0.024
